# Assay Explanation: clinical
# Settings: human, in vivo, iv
Value Kind: MRT (h)

>>> endpoint_value("O=C1C(O)=C([C@H]2CC[C@H](c3ccc(Cl)cc3)CC2)C(=O)c2ccccc21")
67
>>> endpoint_value("NC(=O)CC[C@@H]1NC(=O)[C@H](Cc2ccccc2)NC(=O)[C@H](Cc2ccc(O)cc2)NC(=O)CCSSC[C@@H](C(=O)N2CCC[C@H]2C(=O)N[C@H](CCCN=C(N)N)C(=O)NCC(N)=O)NC(=O)[C@H](CC(N)=O)NC1=O")
3.6
>>> endpoint_value("CNC1(c2ccccc2Cl)CCCCC1=O (stereo not drawn)")
2.5
